system: redroot pigweed (Amaranthus retroflexus); experiment: Test G Post-Emergence Protocol; format: in vivo; details: 250 g ai/ha, evaluated after 13 days
parameter: damage to plant, Pigweed, Redroot (100=total damage to plant; 0=no damage to plant)
Answers are plain numbers.

// known answers, use as guide
COc1ccc([C@@H]2CN(C)C(=O)[C@H]2C(=O)Nc2ccccc2F)cc1[N+](=O)[O-] (racemic)	30
CN1CC(c2ccc(C(F)(F)F)cc2)C(C(=O)Nc2[nH]cnc2[N+](=O)[O-])C1=O (racemic)	0
Cc1ccc(NC(=O)C2C(=O)N(C)CC2c2ccc(C(F)(F)F)cc2)c([N+](=O)[O-])c1 (racemic)	10

Reported damage to plant, Pigweed, Redroot (100=total damage to plant; 0=no damage to plant) ( CN1C[C@H](c2ccc(C(F)(F)F)cc2)[C@@H](C(=O)Nc2cccc(F)n2)C1=O ) = 60

---

tested on: barnyardgrass (Echinochloa crus-galli); experiment: Test A postemergence; type: in vivo; details: 125 g ai/ha, postemergence; visual rating after approx. 10 d, 0 to 100 scale (0 no effect, 100 complete control)
parameter: Plant response rating, Barnyardgrass
Numbers only.

// known answers, use as guide
CCc1cc(C2CNC(=O)C2C(=O)Nc2ccccc2F)cs1 (racemic) [Compound 657]	90
CN1CC(c2cc(F)cc(F)c2)C(C(=O)Nc2ccccc2F)C1=O (centres unmarked) [Compound 643]	90
Cc1cccc(C2CN(C)C(=O)C2C(=O)Nc2ccccc2S(C)(=O)=O)c1 (centres unmarked) [Compound 668]	90
CCc1cc(C2CNC(=O)C2C(=O)Nc2cccc(F)c2F)cs1 (racemic) [Compound 658]	70
C=CCOc1cccc(C2CNC(=O)C2(CC=C)C(=O)Nc2cccc(F)c2F)c1 (centres unmarked) [Compound 631]	0

Lab note: each compound below needs its Plant response rating, Barnyardgrass filled in.
1. CN1CC(c2ccc(C(C)(F)F)cc2)C(C(=O)Nc2cccc(F)c2F)C1=O (centres unmarked) [Compound 690]
2. CN1CC(c2cccc(F)c2)C(C(=O)Nc2cccc(F)c2F)C1=O (centres unmarked) [Compound 632]
3. O=C1NCC(c2cc(F)c(F)cc2F)C1C(=O)Nc1ccccc1F (racemic) [Compound 549]

1. 80
2. 90
3. 40

---

system: soybean (Glycine max); experiment: Test C preemergence; assay type: in vivo; details: 31 g ai/ha, 0 is no effect, 100 is complete control
Could you please report measured Plant response rating (scale of 0 to 100), Soybean for the items listed next?
One number for each entry.

// known answers, use as guide
CN1C[C@H](c2ccc(F)c(F)c2)[C@@H](C(=O)Nc2ccccc2F)C1=O [Compound 596]	0
CN1CC(c2cccc(OC(F)F)c2)C(C(=O)Nc2cccc(F)c2F)C1=O (stereo not drawn) [Compound 616]	0
CN1CC(c2ccc(F)c(F)c2)C(C(=O)Nc2ccccc2C(F)(F)F)C1=O (stereo not drawn) [Compound 641]	0

Lab note: each compound below needs its Plant response rating (scale of 0 to 100), Soybean filled in.
1. O=C1NCC(c2cccc(OC(F)(F)C(F)F)c2)C1C(=O)Nc1ccc(F)c(F)c1F (racemic) [Compound 698]
2. O=C1NCC(c2cccc(OC(F)(F)C(F)F)c2)C1C(=O)Nc1cccc(F)c1F (racemic) [Compound 697]

1. 35
2. 0

Reported Plant response rating (scale of 0 to 100), Soybean ( CN1C[C@H](c2ccc(C(F)(F)F)cc2)[C@@H](C(=O)Nc2cccc(F)c2F)C1=O [Compound 623] ) = 0
